Tested on: Vero E6 infected with SARS-CoV-2
Protocol Summary: inhibition of SARS-CoV-2 cytopathic effect; higher = more antiviral protection, active = above 15
Recorded Conditions: 100 nM; 48 h
Measure Name: inhibition of SARS-CoV-2 cytopathic effect (%)

Nc1nc(F)nc2c1ncn2[C@@H]1O[C@H](COP(=O)(O)O)[C@@H](O)[C@@H]1O [fludarabine-phosphate] ... -0.32
CNC(=O)[C@H]1O[C@@H](n2cnc3c(NCc4cccc(I)c4)nc(Cl)nc32)[C@H](O)[C@@H]1O ... 4.18
CN1CCC(c2c[nH]c3ccc(O)cc23)CC1 ... 0.58
O=C(O)CCCCCCNC1c2ccccc2CCc2ccccc21 [amineptine] ... -1.15
CC(=O)S[C@@H]1CC2=CC(=O)CC[C@]2(C)[C@H]2CC[C@@]3(C)[C@@H](CC[C@@]34CCC(=O)O4)[C@H]12 [spironolactone] ... -0.37
CC(C)(C)OC(=O)c1ncn2c1[C@@H]1CCCN1C(=O)c1c(Br)cccc1-2 [bretazenil] ... -1.99
COC(=O)C1=C(C)NC(C)=C(C(=O)O[C@H]2CCN(Cc3ccccc3)C2)[C@H]1c1cccc([N+](=O)[O-])c1 [barnidipine] ... 1.31
NCCc1ccc(O)c(O)c1 [dopamine] ... -0.35

---

Tested on: Vero E6 infected with SARS-CoV-2
Protocol Summary: inhibition of SARS-CoV-2 cytopathic effect; higher = more antiviral protection, active = above 15
Recorded Conditions: 100 nM; 48 h
Reported inhibition of SARS-CoV-2 cytopathic effect values follow for various compounds
Measure Name: inhibition of SARS-CoV-2 cytopathic effect (%)

Cl[C@H]1[C@H](Cl)[C@@H](Cl)[C@@H](Cl)[C@H](Cl)[C@H]1Cl [lindane] ... -0.79
O=C(O)[C@@H]1C[C@@H](C2CCCCC2)CN1C(=O)CP(=O)(O)CCCCc1ccccc1 [fosinoprilat] ... -5.83
Cn1c(=O)c2c(ncn2CC(=O)O)n(C)c1=O [acefylline] ... 12.4
C#CC1(OCC(O)CN2CCN(c3cccc(C(F)(F)F)c3)CC2)CCCCC1 (stereo not drawn) [terciprazine] ... -0.67
CC1Cc2ccccc2N1NC(=O)c1ccc(Cl)c(S(N)(=O)=O)c1 (stereo not drawn) [indapamide] ... 0.11
CCn1c(N)c(C(=O)NC)c(=O)c2ccc(C#C[C@@](C)(O)COC)nc21 ... -1.69
CC1(C)O[C@@H]2C[C@H]3[C@@H]4CCC5=CC(=O)CC[C@]5(C)[C@@]4(F)[C@@H](O)C[C@]3(C)[C@]2(C(=O)CCl)O1 [halcinonide] ... -0.43
c1ccc(CCCCN2CCC(c3ccccc3)CC2)cc1 ... 2.71
Nc1nc(/C(=C/CC(=O)O)C(=O)N[C@@H]2C(=O)N3C(C(=O)O)=CCS[C@H]23)cs1 [ceftibuten] ... 2.51
Nc1ccccc1S(N)(=O)=O [2-aminobenzenesulfonamide] ... 3.94
O=c1[nH]c2ccccc2n1CCCN1CCN(C(c2ccccc2)c2ccccc2)CC1 [oxatomide] ... 1.85
CCOC(=O)C1=C(C)NC(C)=C(C(=O)OC)[C@@H]1c1cccc([N+](=O)[O-])c1 (racemic) [nitrendipine] ... -3.74
CC(C)(O)C(=O)N1CCN(c2ccc(C(F)(F)F)c(C3=C(c4c[nH]c5ccccc45)C(=O)NC3=O)c2)CC1 ... -5.41
Cn1cc(C[C@@H](N)C(=O)O)c2ccccc21 [indoximod] ... -2.33
COc1ccc(-c2sc(NC(=O)C(C)(C)C)nc2C)cc1S(=O)(=O)Nc1ccc(O)cc1 [PI4KIII-beta-inhibitor-1] ... 0.52
O=C1c2cccc(O)c2C(=O)c2c(O)cc(CO)cc21 [aloe-emodin] ... -0.52
N=C1NC(=O)/C(=C/c2ccc(O)cc2)S1 [mirin] ... -0.71
C[C@H](Nc1ncnc2[nH]cnc12)c1cc2ccc(F)cc2nc1-c1ccccn1 ... 4.2
